- assayed_target: Adenosine receptor A3 (Homo sapiens) (UniProt P0DMS8)
- Sequence (P0DMS8 whole entry): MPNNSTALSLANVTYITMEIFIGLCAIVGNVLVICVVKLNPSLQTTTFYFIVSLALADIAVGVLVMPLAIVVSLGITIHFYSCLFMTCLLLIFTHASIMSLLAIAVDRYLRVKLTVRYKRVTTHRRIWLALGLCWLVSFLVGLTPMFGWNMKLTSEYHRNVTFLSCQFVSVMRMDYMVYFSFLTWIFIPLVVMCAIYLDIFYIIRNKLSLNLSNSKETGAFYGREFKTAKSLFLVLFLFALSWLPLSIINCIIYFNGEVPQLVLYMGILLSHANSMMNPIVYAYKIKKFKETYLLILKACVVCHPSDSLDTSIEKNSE
- method_summary: Maximal agonist effect at human adenosine A3 receptor in CHO cells at 10 uM by the inhibition of forskolin-stimulated cAMP production
- Assay type: functional, cell-based
- Parameters: scale not given: the % may be the effect or the level left
recorded_metric: Activity (%)
Response body: numeric value in %, unit text excluded.

# annotated cases, reported Activity shown
1. OC[C@H]1O[C@@H](n2cnc3c(NC4CCCC4)ncnc32)[C@H](O)[C@@H]1O = 72
2. CNC(=O)C12C[C@@H]1[C@@H](n1cnc3c(NC4C5CCC4CC5)nc(Cl)nc31)[C@H](O)[C@@H]2O (single isomer, unassigned) = 92
3. CNC(=O)C12C[C@@H]1[C@@H](n1cnc3c(NC4CCCC4)nc(Cl)nc31)[C@H](O)[C@@H]2O (single isomer, unassigned) = 101
4. OC[C@H]1O[C@@H](n2cnc3c(NC4CCCC4)nc(Cl)nc32)[C@H](O)[C@@H]1O = 0
5. OC[C@H]1O[C@@H](n2cnc3c(NC4C5CCC4CC5)ncnc32)[C@H](O)[C@@H]1O (stereo partly specified) = 112

Prompt line: Any idea what its Activity is? The molecule is CNC(=O)C12C[C@@H]1[C@@H](n1cnc3c(NC4CCCC4)ncnc31)[C@H](O)[C@@H]2O (single isomer, unassigned)
Response line: 93
